experimental system: Recombinant human his-tagged IGF 1R extracellular domain protein (human) (UniProt P08069)
experiment: SPR, captured antibody, dissociation at pH 6

binder	Kd
VRDN-03042 (antibody, V domains shown) VH: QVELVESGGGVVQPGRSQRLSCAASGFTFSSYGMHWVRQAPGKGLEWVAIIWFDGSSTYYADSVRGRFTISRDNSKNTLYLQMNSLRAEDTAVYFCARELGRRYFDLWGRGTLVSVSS VL: EIVLTQSPATLSLSPGERATLSCRASQHVSSYLAWYQQKPGQAPRLLIYDASKRATGIPARFSGSGSGTDFTLTISSLEPEDFAVYYCQQRSKWPPWTFGQGTKVESK	1.2 nM
VRDN-03103 (antibody, V domains shown) VH: QVQLVESGGGVVQPGRSLRLSCAASGFTFSDYTMHWVRQAPGKGLEWVAIIWFDGSSKYYPGSVKGRFTISRDNSKNTLYLQMNSLRAEDTAVYYCARELGRRYFDIWGRGTLVTVSS VL: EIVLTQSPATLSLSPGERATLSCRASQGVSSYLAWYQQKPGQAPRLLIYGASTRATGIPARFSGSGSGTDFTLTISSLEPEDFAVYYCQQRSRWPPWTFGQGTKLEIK	1.44 nM
